Reported JAKs/HPK1 IC50 Ratio, B* values for the following compounds.
biological target: JAK3 (Homo sapiens); construct: purchased Thermo fisher PV3855; test: JAK3 biochemical assay (ADP-GLO Kinase Assay); settings: ratio of JAK3 IC50 to HPK1 IC50; first testing facility
Give the figure by itself; no unit, no explanation.

INSERT INTO assay_data (compound, quantitative_readout) VALUES
  ('COC(=O)CC1(C)CN(c2nc(Nc3cc4c(cc3OC)CCN(C)C4)ncc2Cl)c2ccccc21 (stereo not shown)', 476),
  ('CNC(=O)Cc1cn(-c2nc(Nc3cc4c(cc3OC)CCN(C)C4)ncc2Cl)c2ccccc12', 438),
  ('COc1cc2c(cc1Nc1ncc(Cl)c(N3CC(C(=O)O)c4ccccc43)n1)CN(C)CC2 (single isomer, unassigned) [Example 96]', 80),
  ('COc1cc2c(cc1Nc1ncc(Cl)c(N3CC(c4nn[nH]n4)c4ccccc43)n1)CN(C)CC2 (stereo not shown)', 200),
  ('COc1cc2c(cc1Nc1ncc(Cl)c(N3CC(C(=O)O)c4cc(F)ccc43)n1)CN(C)CC2 (stereo not shown)', 45);

# context switch: different compound, same JAKs/HPK1 IC50 Ratio, B*
QUERY: Please look up its JAKs/HPK1 IC50 Ratio, B*: COc1cc2c(cc1Nc1ncc(Cl)c(N3CC(C)(C#N)c4ccccc43)n1)CN(C)CC2 (stereo not shown)
RESULT: 50

---

molecular target: JAK3 (Homo sapiens, UniProt P52333); construct: purchased Thermo fisher PV3855; assay: JAK3 biochemical assay (ADP-GLO Kinase Assay); details: ratio of JAK3 IC50 to HPK1 IC50; first testing facility
Sequence (P52333 781-1124 limits assumed): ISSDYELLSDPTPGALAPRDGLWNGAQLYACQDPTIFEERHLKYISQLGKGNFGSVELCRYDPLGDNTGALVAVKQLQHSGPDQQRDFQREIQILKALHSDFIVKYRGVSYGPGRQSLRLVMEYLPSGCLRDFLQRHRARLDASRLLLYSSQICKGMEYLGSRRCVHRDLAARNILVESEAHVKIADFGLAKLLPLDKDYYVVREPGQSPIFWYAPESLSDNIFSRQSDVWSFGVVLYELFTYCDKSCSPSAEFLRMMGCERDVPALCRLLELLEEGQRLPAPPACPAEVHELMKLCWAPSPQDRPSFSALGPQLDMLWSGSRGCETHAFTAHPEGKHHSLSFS
Listed here are compounds together with their documented JAKs/HPK1 IC50 Ratio, B*.

Worked examples follow.
INSERT INTO assay_data (compound, measured_parameter, result) VALUES
  ('COc1cc2c(cc1Nc1ncc(Cl)c(-n3cc(Cc4nn[nH]n4)c4ccccc43)n1)CN(C)CC2', 'JAKs/HPK1 IC50 Ratio, B*', 269),
  ('CNC(=O)C1CN(c2nc(Nc3cc4c(cc3OC)CCN(C)C4)ncc2Cl)c2ccccc21 (centres unmarked)', 'JAKs/HPK1 IC50 Ratio, B*', 800),
  ('COc1cc2c(cc1Nc1ncc(Cl)c(N3CC(C)(C(=O)O)c4ccc(F)cc43)n1)CN(C)CC2 (centres unmarked)', 'JAKs/HPK1 IC50 Ratio, B*', 9),
  ('COc1cc2c(cc1Nc1ncc(Cl)c(N3CCc4cc(F)ccc43)n1)CN(C)CC2', 'JAKs/HPK1 IC50 Ratio, B*', 88),
  ('COc1cc2c(cc1Nc1ncc(Cl)c(-n3cc(S(N)(=O)=O)c4ccccc43)n1)CN(C)CC2', 'JAKs/HPK1 IC50 Ratio, B*', 232);

QUERY: Item COc1cc2c(cc1Nc1ncc(Cl)c(-n3cc(S(C)(=O)=O)c4ccccc43)n1)CN(C)CC2 has what recorded JAKs/HPK1 IC50 Ratio, B*?
RESULT: >1172

QUERY: Do the same for COc1cc2c(cc1Nc1ncc(Cl)c(N3CC(CO)(C(=O)O)c4ccccc43)n1)CN(C)CC2 (centres unmarked) please
RESULT: 20

QUERY: Also check COc1cc2c(cc1Nc1ncc(Cl)c(-n3cc(C(C)C(=O)O)c4ccccc43)n1)CN(C)CC2 (centres unmarked)
RESULT: 117

This collection of values is drawn from patent US12612424B2.
